# assay-summary: in vivo
# recorded-conditions: female, CD-1, mouse, po, 25 mg/kg
What bioavailability was measured for each of the following?

These recorded examples may help you get a feel for the data.
1) O=C1CCc2cc(N3CCN(C(=O)c4ccc(F)c(Br)c4)CC3)ccc21 ... > 100%
2) CC(=O)c1ccc(N2CCN(C(=O)c3ccc4c(c3)OCO4)CC2)cc1 ... 3.4%

Problem: Which bioavailability is reported for this compound? `O=C1CCc2cc(N3CCN(C(=O)c4ccc(F)c(Br)c4)CC3)ncc21`
Solution: > 100%

---

What clearance was measured for each of the following?
# assay-summary: in vivo
# recorded-conditions: female, CD-1, mouse, iv
Give bare numbers, in mL/min/kg.

These recorded examples may help you get a feel for the data.
1) O=C1CCc2cc(N3CCN(C(=O)c4ccc(F)c(Br)c4)CC3)ncc21 [C48] ... 3.2
2) O=C1CCc2cc(N3CCN(C(=O)c4ccc(F)c(Br)c4)CC3)ccc21 [C21] ... 5.3

Problem: Which clearance is reported for this molecule? CC(=O)c1ccc(N2CCN(C(=O)c3ccc4c(c3)OCO4)CC2)cc1 [compound 6]
Solution: 30.6
